Note to self: these compounds have pIC50 reported for Chymotrypsin-like elastase family member 1 (Sus scrofa, UniProt P00772) in various publications.
pIC50: −log10 of the molar value.
assay.readout: pIC50

Here's what some known entries look like.
compound: CC1=C(C(=O)OC(c2ccccc2)c2ccccc2)N2C(=O)[C@H](Br)[C@H]2S(=O)(=O)C12CC2(C)c1ccccc1 (stereo partly drawn)
reported.result: 7.25
//
compound: CC1=C(C(=O)N2CCCC2)N2C(=O)[C@H](Br)[C@H]2S(=O)(=O)C12CC2(c1ccccc1)c1ccccc1 (stereo partly drawn)
reported.result: 6.69
//
compound: CC1=C(C(=O)OC(c2ccccc2)c2ccccc2)N2C(=O)[C@H](Br)[C@H]2S(=O)(=O)C12CC2(c1ccc(F)cc1)c1ccc(F)cc1 (single isomer, unassigned)
reported.result: 7.20
//
compound: C=C=C1C(=O)N2C(C(=O)OC(c3ccccc3)c3ccccc3)=C(COC(C)=O)CS(=O)(=O)[C@H]12
reported.result: 5.39
//
compound: COc1ccc(C[N+]2([O-])CCc3sc(OC(=O)C(C)(C)C)cc3C2)cc1 (stereo not drawn)
reported.result: 6.00
//
compound: CCO[C@H]1C(=O)N2C(C(=O)OCC(Cl)(Cl)Cl)=C(C)C3(CC3(c3ccccc3)c3ccccc3)S(=O)(=O)[C@H]12 (stereo partly drawn)
reported.result: 7.79
//
compound: CC(C)C(=O)Oc1cc2c(s1)CCN(Cc1ccc(Cl)cc1)C2
reported.result: 5.15
//
compound: CCCCCCCCCCCCCCCCCC[N+](C)(C)[BH2-]C(=O)O
reported.result: 4.56
//
compound: CCCC(=O)Oc1cc2c(s1)CCN(Cc1ccc(Cl)cc1)C2
reported.result: 5.32
//
compound: CCCN1CCc2sc(OC(=O)C(C)(C)C)cc2C1
reported.result: 5.00

A = CCOC(=O)Oc1cc2c(s1)CC[N+]([O-])(Cc1ccccc1Cl)C2 (stereo not drawn)
B = CC(c1ccccc1)N1CCc2sc(OC(=O)C(C)(C)C)cc2C1 (racemic)
C = CC(C)C(=O)Oc1cc2c(s1)CCN(Cc1ccccc1)C2
D = CC(C)(C)C(=O)Oc1cc2c(s1)CC[N+](C)(Cc1ccccc1Cl)C2 (stereo not drawn)
E = CC(=O)OCC1=C(C(=O)OC(c2ccccc2)c2ccccc2)N2C(=O)/C(=C\Br)[C@H]2S(=O)(=O)C1
Put these in order: smallest pIC50 first, largest last. Labels, requested order.
A, C, B, E, D
(A: 4.62, C: 5.10, B: 5.35, E: 5.60, D: 5.80)

I = CC(=O)OCC1=C(C(=O)OC(c2ccccc2)c2ccccc2)N2C(=O)C(=C(Br)Br)[C@H]2S(=O)(=O)C1
II = COC(=O)C(c1ccccc1Cl)N1CCc2sc(OC(=O)C(C)C)cc2C1 (stereo not drawn)
Sorting by pIC50 in descending order, would I or II appear first? # answer = label of selected item
II

I = CC(=O)OCC1=C(C(=O)OC(c2ccccc2)c2ccccc2)N2C(=O)C(=C(Br)Br)[C@H]2SC1
II = CC(C)(C)C(=O)Oc1cc2c(o1)CC[N+]([O-])(Cc1ccccc1Cl)C2 (stereo not drawn)
III = CO[C@H]1C(=O)N2C(C(=O)N3CCCC3)=C(C)C3(CC3(c3ccccc3)c3ccccc3)S(=O)(=O)[C@H]12 (stereo partly drawn)
IV = CC(=O)Oc1cc2c(s1)CC[N+]([O-])(C(C(=O)N1CCCC1)c1ccccc1Cl)C2 (stereo not drawn)
# rank_down: sort by pIC50, max first Please reply with the labels ordered as requested. Many thanks.
III, II, I, IV
(III: 7.08, II: 5.77, I: 5.19, IV: 4.60)

I = CC(=O)OCC1=C(C(=O)OC(c2ccccc2)c2ccccc2)N2C(=O)/C(=C\Br)[C@H]2SC1
II = CC1=C(C(=O)OC(C)(C)C)N2C(=O)[C@H](Br)[C@H]2S(=O)(=O)C12CC2(c1ccccc1)c1ccccc1 (stereo partly drawn)
Recorded pIC50 values differ for I and II ; which one is higher? # answer = label of selected item
II
